Each recorded value in this set is attributed to patent US20220378706A1.

EXPERIMENT DESCRIPTION: Multiple ascending dose study: plasma pharmacokinetics
Assay type: in vivo
ASSAY CONTEXT: human, po, 100 mg, Day 1, 100 mg QD oral, read-out: AUC(0-24 h) GM (% CV)
VALUE KIND: AUC(0-t) (ng·h/mL)

SMILES REPRESENTATION | VALUE KIND | RECORDED VALUE
COc1ncc(C)c(-c2ccc3c(c2)[nH]c(=O)c2cnn([C@H]4CCOC4)c23)c1C | AUC(0-t) | 5230

----------
EXPERIMENT DESCRIPTION: Multiple ascending dose study: plasma pharmacokinetics
Format: in vivo
ASSAY CONTEXT: human, po, 5 mg, Day 1, 5 mg QD oral, read-out: tmax Median
Procedure: Four sequential cohorts of healthy participants (≥50 years and ≤85 years old) were treated with multiple ascending doses of Compound A up to the maximum tolerated dose (MTD). A total of 6 participants per cohort were randomized to Compound A. Proposed doses of Compound A were: Participants received Compound A capsules, orally once daily (QD) on Days 1 to 14 after an overnight fast of at least 10 hours. Compound A was administered orally with 240 milliliter (mL) (8 fluid ounces) of water. […]

MOLECULE | Tmax / h
COc1ncc(C)c(-c2ccc3c(c2)[nH]c(=O)c2cnn([C@H]4CCOC4)c23)c1C [Compound A] | 4

----------
EXPERIMENT DESCRIPTION: Single dose clinical study Part B: CSF Compound A pharmacokinetics
Assay type: in vivo
ASSAY CONTEXT: human; CSF, healthy adults Part B, single oral 50 mg, fasted; read-out: CSF tmax Median
VALUE KIND: Tmax

SMILES REPRESENTATION | RECORDED VALUE
COc1ncc(C)c(-c2ccc3c(c2)[nH]c(=O)c2cnn([C@H]4CCOC4)c23)c1C | 11.9 h

----------
EXPERIMENT DESCRIPTION: Multiple ascending dose study: plasma pharmacokinetics
Format: in vivo
ASSAY CONTEXT: human, po, 5 mg, Day 1, 5 mg QD oral, read-out: Cmax Median

COMPOUND | UNIT SPEC | Cmax
COc1ncc(C)c(-c2ccc3c(c2)[nH]c(=O)c2cnn([C@H]4CCOC4)c23)c1C [Compound A] | ng/mL | 26.6

----------
EXPERIMENT DESCRIPTION: Single dose clinical study: plasma Compound A pharmacokinetics
Assay type: in vivo, human
ASSAY CONTEXT: human, plasma, po, 25 mg, plasma, healthy adults (Parts A,B), single oral 25 mg, fasted; read-out: AUC(0-30 h) GM
VALUE KIND: AUC(0-t)

SMILES REPRESENTATION | RECORDED VALUE
COc1ncc(C)c(-c2ccc3c(c2)[nH]c(=O)c2cnn([C@H]4CCOC4)c23)c1C | 2200 ng·h/mL

----------
EXPERIMENT DESCRIPTION: Single dose clinical study: plasma Compound A pharmacokinetics
Format: in vivo, human
ASSAY CONTEXT: human, plasma, oral, 100 mg, Fasted, 100 mg, Part B; read-out: AUC(0-inf) Geometric LS Means Reference

COMPOUND | UNIT SPEC | AUC(0-inf)
COc1ncc(C)c(-c2ccc3c(c2)[nH]c(=O)c2cnn([C@H]4CCOC4)c23)c1C [Compound A] | ng·h/mL | 14500

----------
EXPERIMENT DESCRIPTION: Multiple ascending dose study: plasma pharmacokinetics
Type: in vivo
ASSAY CONTEXT: human, po, 10 mg, Day 14, 10 mg QD oral, read-out: tmax Median

COMPOUND | UNIT SPEC | Tmax
COc1ncc(C)c(-c2ccc3c(c2)[nH]c(=O)c2cnn([C@H]4CCOC4)c23)c1C [Compound A] | h | 1.5

----------
EXPERIMENT DESCRIPTION: Single dose clinical study: plasma Compound A pharmacokinetics
Type: in vivo, human
ASSAY CONTEXT: human, plasma, po, 100 mg, plasma, Part B 100 mg cohort, single oral 100 mg, Fasted; read-out: Vz/F GM (% CV)

SMILES REPRESENTATION | Vd/F, L
COc1ncc(C)c(-c2ccc3c(c2)[nH]c(=O)c2cnn([C@H]4CCOC4)c23)c1C | 252

----------
EXPERIMENT DESCRIPTION: Single dose clinical study: plasma Compound A pharmacokinetics
Format: in vivo, human
ASSAY CONTEXT: human, plasma, po, 25 mg, plasma, healthy adults (Parts A,B), single oral 25 mg, fasted; read-out: AUC(0-24 h) GM
VALUE KIND: AUC(0-t)

COMPOUND | RECORDED VALUE
COc1ncc(C)c(-c2ccc3c(c2)[nH]c(=O)c2cnn([C@H]4CCOC4)c23)c1C [Compound A] | 1850 ng·h/mL

----------
EXPERIMENT DESCRIPTION: Single dose clinical study: plasma Compound A pharmacokinetics
Assay type: in vivo, human
ASSAY CONTEXT: human, plasma, po, 400 mg, plasma, healthy adults (Parts A,B), single oral 400 mg, fasted; read-out: tmax Median
VALUE KIND: Tmax (h)

COMPOUND | VALUE KIND | UNIT SPEC | RECORDED VALUE
COc1ncc(C)c(-c2ccc3c(c2)[nH]c(=O)c2cnn([C@H]4CCOC4)c23)c1C [Compound A] | Tmax | h | 2.5

----------
EXPERIMENT DESCRIPTION: Multiple ascending dose study: plasma pharmacokinetics
Type: in vivo
ASSAY CONTEXT: human, po, 25 mg, Day 1, 25 mg QD oral, read-out: tmax Median
VALUE KIND: Tmax (h)

COMPOUND | VALUE KIND | RECORDED VALUE
COc1ncc(C)c(-c2ccc3c(c2)[nH]c(=O)c2cnn([C@H]4CCOC4)c23)c1C [Compound A] | Tmax | 3.01

----------
EXPERIMENT DESCRIPTION: Single dose clinical study: plasma Compound A pharmacokinetics
Type: in vivo, human
ASSAY CONTEXT: human, plasma, po, 100 mg, plasma, Japanese Subjects (Part D), single oral 100 mg; read-out: tmax Median

SMILES REPRESENTATION | Tmax / h
COc1ncc(C)c(-c2ccc3c(c2)[nH]c(=O)c2cnn([C@H]4CCOC4)c23)c1C | 2.52

----------
EXPERIMENT DESCRIPTION: Multiple ascending dose study: plasma pharmacokinetics
Assay type: in vivo
ASSAY CONTEXT: human, po, 400 mg, Day 1, 400 mg QD oral, Non-Japanese, read-out: Cmax GM (% CV)
VALUE KIND: Cmax (ng/mL)

SMILES REPRESENTATION | VALUE KIND | UNIT SPEC | RECORDED VALUE
COc1ncc(C)c(-c2ccc3c(c2)[nH]c(=O)c2cnn([C@H]4CCOC4)c23)c1C | Cmax | ng/mL | 1100

----------
EXPERIMENT DESCRIPTION: Multiple ascending dose study: plasma pharmacokinetics
Format: in vivo
ASSAY CONTEXT: human, po, 50 mg, Day 1, 50 mg QD oral, read-out: Cmax Mean (SD)
VALUE KIND: Cmax (ng/mL)

SMILES REPRESENTATION | VALUE KIND | RECORDED VALUE
COc1ncc(C)c(-c2ccc3c(c2)[nH]c(=O)c2cnn([C@H]4CCOC4)c23)c1C | Cmax | 237

----------
EXPERIMENT DESCRIPTION: Single dose clinical study: plasma Compound A pharmacokinetics
Format: in vivo, human
ASSAY CONTEXT: human, plasma, po, 50 mg, plasma, healthy adults (Parts A,B), single oral 50 mg, fasted; read-out: AUC(0-30 h) GM
VALUE KIND: AUC(0-t) (ng·h/mL)

SMILES REPRESENTATION | VALUE KIND | RECORDED VALUE
COc1ncc(C)c(-c2ccc3c(c2)[nH]c(=O)c2cnn([C@H]4CCOC4)c23)c1C | AUC(0-t) | 4010

----------
EXPERIMENT DESCRIPTION: Single dose clinical study: plasma Compound A pharmacokinetics
Format: in vivo, human
ASSAY CONTEXT: human, plasma, oral, 100 mg, Japanese, 100 mg, with weight as covariate; read-out: Cmax Geometric LS Means Test

SMILES REPRESENTATION | UNIT SPEC | Cmax
COc1ncc(C)c(-c2ccc3c(c2)[nH]c(=O)c2cnn([C@H]4CCOC4)c23)c1C | ng/mL | 491

----------
EXPERIMENT DESCRIPTION: Multiple ascending dose study: plasma pharmacokinetics
Format: in vivo
ASSAY CONTEXT: human, po, 100 mg, Day 14, 100 mg QD oral, read-out: AUC(0-inf) Mean (SD)

SMILES REPRESENTATION | UNIT SPEC | AUC(0-inf)
COc1ncc(C)c(-c2ccc3c(c2)[nH]c(=O)c2cnn([C@H]4CCOC4)c23)c1C | ng·h/mL | 58600

----------
EXPERIMENT DESCRIPTION: Single dose clinical study: plasma Compound A pharmacokinetics
Assay type: in vivo, human
ASSAY CONTEXT: human, plasma, po, 10 mg, plasma, healthy adults (Parts A,B), single oral 10 mg, fasted; read-out: AUC(0-inf) GM

SMILES REPRESENTATION | AUC(0-inf) / ng·h/mL
COc1ncc(C)c(-c2ccc3c(c2)[nH]c(=O)c2cnn([C@H]4CCOC4)c23)c1C | 1840
